This listing pairs compounds with measured Activity.
- TARGET OR TEST SYSTEM: Coagulation factor VII (Homo sapiens)
- EXPERIMENT SUMMARY: Inhibition of human factor 7a assessed as residual activity at 500 uM by spectrophotometric assay
Your answer is read as %, so omit the unit and give the number.

• Cc1nc2ccc(OCc3nc4ccc(OS(=O)(=O)O)cc4s3)cc2s1 = 102
• CCOC(=O)c1c(Cc2ccccc2)oc2cc(OC)c(OCc3nc4ccc(OS(=O)(=O)O)cc4s3)cc12 = 100
• Cc1nc2ccc(OS(=O)(=O)O)cc2s1 = 91
• CCOC(=O)c1c(COc2cc3c(C(=O)OCC)coc3cc2OC)[nH]c2ccc(OS(=O)(=O)O)cc12 = 87

What Activity value was documented for this compound, CCOC(=O)c1c(C)[nH]c2ccc(OCc3c(C(=O)OCC)c4cc(OS(=O)(=O)O)ccc4n3C(=O)OC(C)(C)C)cc12 ? 99

Bench note: what Activity did COc1cc2occ(C(=O)OC(C)(C)C)c2cc1OCc1nc2ccc(OS(=O)(=O)O)cc2s1 show? 98

Name the recorded Activity for CCOC(=O)c1c(COc2cc3c(C(=O)OCC)c(COc4cc5c(C(=O)OCC)c(C)oc5cc4OC)oc3cc2OC)[nH]c2ccc(OS(=O)(=O)O)cc12 . 92
